From: ChEMBL document CHEMBL5291721

Assay system Histamine H1 receptor (Homo sapiens, UniProt P35367); read-out recorded as AC50. Further: assay procedure not described here.

INSERT INTO measurements (compound, val) VALUES
  ('C[C@@H](Cc1ccccc1)N(C)Cc1ccccc1', '> 10 µM'),
  ('C[C@H](Nc1ncnc2[nH]cnc12)c1cc2cccc(Cl)c2c(=O)n1-c1ccccc1', '> 30 µM'),
  ('Nc1nc(Cl)nc2c1ncn2[C@@H]1O[C@H](CO)[C@@H](O)[C@@H]1F', '> 30 µM'),
  ('CC(C)C[C@H](NC(=O)[C@H](Cc1ccccc1)NC(=O)c1cnccn1)B(O)O', '> 30 µM'),
  ('CCN1C(=O)NC(c2ccccc2)C1=O (centres undefined)', '> 30 µM');

Data request: Which measured AC50 value corresponds to CN(C)CCC(O)(c1ccccc1)c1ccccc1Cl (centres undefined) ?
Data returned: > 10 µM

Data request: Which measured AC50 value corresponds to COC(=O)c1ccc2c(c1)NC(=O)/C2=C(\Nc1ccc(N(C)C(=O)CN2CCN(C)CC2)cc1)c1ccccc1 ?
Data returned: > 30 µM

Data request: Which measured AC50 value corresponds to CNC1(C)C2CCC(C2)C1(C)C (centres undefined) ?
Data returned: > 10 µM

Data request: Which measured AC50 value corresponds to CCNC(=O)CCC/C=C\C[C@@H]1[C@@H](/C=C/[C@@H](O)CCc2ccccc2)[C@H](O)C[C@@H]1O ?
Data returned: > 30 µM

---

biological target: Sodium-dependent dopamine transporter (Homo sapiens, UniProt Q01959); further: assay procedure not described here
Sequence (Q01959 whole entry): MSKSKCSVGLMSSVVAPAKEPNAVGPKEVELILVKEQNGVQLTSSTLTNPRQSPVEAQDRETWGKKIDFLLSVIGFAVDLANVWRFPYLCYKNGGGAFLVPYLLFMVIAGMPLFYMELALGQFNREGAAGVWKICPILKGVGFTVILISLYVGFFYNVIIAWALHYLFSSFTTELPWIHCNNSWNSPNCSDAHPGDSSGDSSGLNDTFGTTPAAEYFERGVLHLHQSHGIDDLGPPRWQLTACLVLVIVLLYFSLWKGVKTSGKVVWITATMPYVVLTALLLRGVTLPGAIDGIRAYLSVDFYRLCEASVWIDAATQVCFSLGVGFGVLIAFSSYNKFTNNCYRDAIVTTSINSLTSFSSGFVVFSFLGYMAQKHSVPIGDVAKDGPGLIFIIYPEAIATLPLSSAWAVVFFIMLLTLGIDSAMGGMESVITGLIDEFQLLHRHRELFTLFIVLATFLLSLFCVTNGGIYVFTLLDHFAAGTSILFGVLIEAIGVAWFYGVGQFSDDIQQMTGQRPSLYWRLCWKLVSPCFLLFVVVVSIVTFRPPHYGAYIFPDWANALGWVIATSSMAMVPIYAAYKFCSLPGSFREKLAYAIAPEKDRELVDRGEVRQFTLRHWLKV
measured-metric: AC50

Known AC50 results, listed for orientation:
INSERT INTO assay_data (compound, val) VALUES
  ('CO/N=C(\C(=O)N[C@@H]1C(=O)N2C(C(=O)[O-])=C(C[n+]3ccc(N)n3CCO)CS[C@H]12)c1csc(N)n1', '> 30 µM'),
  ('NS(=O)(=O)c1ccc(N2CCCCS2(=O)=O)cc1', '> 30 µM'),
  ('CCC(=O)c1ccc2c(c1)N(CC(C)N(C)C)c1ccccc1S2 (stereo not drawn)', '> 10 µM'),
  ('CN(C)CCC(O)(c1ccccc1)c1ccccc1Cl (stereo not drawn)', '> 10 µM'),
  ('NCCCCCC(=O)O', '12.7 µM'),
  ('OCCN(CCO)c1nc(N2CCCCC2)c2nc(N(CCO)CCO)nc(N3CCCCC3)c2n1', '> 30 µM'),
  ('CN(C)[C@@H]1C(O)=C(C(=O)NCN2CCCC2)C(=O)[C@@]2(O)C(O)=C3C(=O)c4c(O)cccc4[C@@](C)(O)[C@H]3C[C@@H]12', '> 10 µM');

API: the following record is the query input.
Data request: API: value(readout=AC50, system=Sodium-dependent dopamine transporter (Homo sapiens, UniProt Q01959)) for record CC(=O)[C@@]1(O)CC[C@H]2[C@@H]3C[C@H](C)C4=CC(=O)C=C[C@]4(C)[C@@]3(F)[C@@H](O)C[C@@]21C; further: assay procedure not described here
Data returned: > 10 µM

---

target: UniProt:P35348
Sequence (P35348 whole entry): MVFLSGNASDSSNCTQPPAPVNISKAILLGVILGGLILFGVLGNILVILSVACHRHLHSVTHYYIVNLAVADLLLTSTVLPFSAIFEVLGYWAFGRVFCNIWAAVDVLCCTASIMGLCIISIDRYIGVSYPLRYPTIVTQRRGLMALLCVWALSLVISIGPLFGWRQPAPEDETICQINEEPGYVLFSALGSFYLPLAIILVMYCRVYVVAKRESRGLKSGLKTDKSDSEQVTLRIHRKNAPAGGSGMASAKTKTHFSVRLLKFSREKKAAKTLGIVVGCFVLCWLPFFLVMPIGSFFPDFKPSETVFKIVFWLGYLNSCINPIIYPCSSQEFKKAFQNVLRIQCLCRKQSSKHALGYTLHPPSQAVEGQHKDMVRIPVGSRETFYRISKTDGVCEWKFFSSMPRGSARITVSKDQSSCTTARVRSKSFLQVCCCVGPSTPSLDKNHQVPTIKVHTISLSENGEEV
Listing of recorded AC50 by entry.
Report only the number, with the unit µM understood.

INSERT INTO results (compound, system_under_test, measured_metric, endpoint_unit, val) VALUES
  ('Cc1ccc(O)c([C@H](CCN(C(C)C)C(C)C)c2ccccc2)c1 [TOLTERODINE]', 'UniProt:P35348', 'AC50', 'µM', 2.74),
  ('Cc1c(C)c2c(c(C)c1O)CCC(C)(COc1ccc(CC3SC(=O)NC3=O)cc1)O2 (configuration not stated) [TROGLITAZONE]', 'UniProt:P35348', 'AC50', 'µM', 12.5),
  ('N=C(N)NC(=O)Cc1c(Cl)cccc1Cl [GUANFACINE]', 'UniProt:P35348', 'AC50', 'µM', 7.64);

API: the following record is the query input.
Data request: API: value(readout=AC50, system=UniProt:P35348) for record O=C1CN=C(c2ccccc2Cl)c2cc([N+](=O)[O-])ccc2N1 [CLONAZEPAM]
Data returned: 11.9
